Taken from PubChem BioAssay (NCI).

// reported TGI per item
Test system: ACHN renal
Assay: NCI tumour cell line growth inhibition, 48 h

Before answering, review these 8 worked examples.
Ask | Consider the compound Cc1ccc(NC(=O)CC2SC(=Nc3cccc(Cl)c3C)NC2=O)cc1 (centres undefined) tested on ACHN renal; state its TGI.
Reply | > 100 µM

Ask | State measured TGI of the compound `Cc1cc2c(=O)c3ccc(Cl)cc3[nH]c2c(C(=O)O)c1C` with ACHN renal.
Reply | > 100 µM

Ask | Look up and report TGI, with ACHN renal as system, for `Nc1ccc(-c2nnc(-c3c(Cl)c(Cl)c(Cl)c(Cl)c3-c3nc4ccc(C(=O)c5ccccc5)cc4[nH]3)o2)cc1`
Reply | > 100 µM

Ask | Tell me TGI of `CO[C@@H]1[C@H](N(C)C(=O)c2ccccc2)C[C@@H]2O[C@]1(C)n1c3ccccc3c3c4c(c5c6ccccc6n2c5c31)C(=O)NC4=O` when tested on ACHN renal.
Reply | > 100 µM

Ask | Look up and report measured TGI (ACHN renal) for the following compound: CCOC(=O)C1C(c2ccccc2)C2(C#N)C(=N)OC1(C)C2(C#N)C#N (centres undefined)
Reply | 50.8 µM

Ask | GET TGI where system = ACHN renal and item = `NS(=O)(=O)c1ccc(N=Nc2c(O)[nH]c3cccc(CCc4ccncc4)c23)cc1`
Reply | > 25 µM

Ask | Under ACHN renal: report TGI of `Cl.Fc1c[c-]c(-c2ccccn2)c(F)c1.[Pt].c1ccc([PH+](c2ccccc2)c2ccccc2[PH+](c2ccccc2)c2ccccc2)cc1` .
Reply | 0.46 µM

Ask | State the measured TGI (ACHN renal) of `O=C(CSc1nc(-c2ccccc2)c(-c2ccccc2)[nH]1)N/N=C/c1ccc([N+](=O)[O-])cc1`
Reply | 92.6 µM

Okay, now this compound:
Ask | Answer briefly: TGI recorded on ACHN renal for `C/C(=N/NC(=S)Nc1ccccc1C)c1ccccn1`
Reply | 10.3 µM

====

Item-by-item account of TGI
System: T-47D breast
Assay: NCI tumour cell line growth inhibition, 48 h
Where a SMILES comes first, the peptide text is derived from it. The star is where a group is joined. Boc = CC(C)(C)OC(=O)*

Use these answered entries as a reference point.
Ask | Look up and state reported TGI for CN1CCC2(CC1)C(=O)N(NC(N)=O)C(=O)C2c1ccccc1 (stereo not drawn)
Reply | > 100 µM

Ask | Quickly give me recorded TGI for `O=C(Nn1c(-c2ccccc2)nc2ccccc2c1=O)c1ccc([N+](=O)[O-])cc1`
Reply | > 100 µM

Ask | Tell us which TGI value is on record for Cc1ccc(OC2CC(n3cnc4c(=O)[nH]c(Br)nc43)OC2Oc2ccc(C)cc2)cc1 (stereo not drawn)
Reply | 62.1 µM

Ask | Assign TGI to the following record: `O=C(O)c1cc(C(=O)C(=O)c2cc(C(=O)O)c(O)c3ccccc23)c2ccccc2c1O`
Reply | > 100 µM

Ask | Given the compound `CSc1nc(SC)c2c(C)cn(Cc3ccccc3)c2n1` , write its reported TGI.
Reply | > 100 µM

Ask | Please give the documented TGI of C=C1CC2(C)CCC(OC(=O)C3(C)OC3C)C(C)(OC(C)=O)C2CC1=C(C)C (stereo not drawn)
Reply | > 100 µM

Ask | Look up TGI of `CC(=O)N[C@@H](Cc1ccc(OP(=O)(O)O)cc1)C(=O)N[C@H]1CCC(=O)N2CCC[C@@H](C(=O)NCc3cccc4ccccc34)N2C1=O` and report it.
Reply | > 25 µM

Ask | Give the value of TGI reported for the following: `COc1cc(/C=C2\N=C(c3ccccc3)N(c3ccc4c(c3)Sc3cc(N5C(=O)/C(=C/c6cc(OC)c(OC)c(OC)c6)N=C5c5ccccc5)ccc3N4)C2=O)cc(OC)c1OC`
Reply | 70.2 µM

Continuing:
Ask | Please supply the value of reported TGI for the item CNC(=O)CNC(=O)C(NC(=O)CNC(=O)C1CCCN1C(=O)C(C)NC(=O)C(NC(=O)OC(C)(C)C)C(C)C)C(C)C (stereo not drawn) (Boc-VAPGVG-NHMe; configuration not given here)
Reply | > 100 µM

Ask | Please supply the value of reported TGI for the item `CN1CCN(Cn2nc(-c3ccccc3)n(/N=C/c3ccc(-c4ccc(Cl)cc4Cl)o3)c2=S)CC1`
Reply | 45.1 µM

Ask | State, in one line, measured TGI of `Cn1c(=O)oc2cc(C(=O)CN3CCN(Cc4ccc5c(c4)OCO5)CC3)c(Cl)cc21`
Reply | > 100 µM

Ask | Give reported TGI value for `Cc1cc(C)c2c(=O)cc(-c3ccccc3)[nH]c2c1`
Reply | > 76.2 µM

Ask | Provide one value: measured TGI of `CCOC(=O)Nc1ccc2c3c(cccc13)-c1ccccc1-2`
Reply | > 100 µM

Ask | Indicate its recorded TGI; the compound in question is `CCCCN(CCCC)C1(c2cc3ccccc3s2)CCCCC1`
Reply | 34.7 µM

Ask | Could you please provide reported TGI for `CCOC(=O)Nc1nc(-c2ccccc2)c(C)s1` ? Thanks!
Reply | > 100 µM
